Test: 1st phase clinical test: pharmacokinetics of petasin in serum after single oral administration of tablets containing butterbur extract (open crossover; enzyme immunoassay)
Format: in vivo, human (clinically healthy men)
Settings: male, human, serum; 2 tablets, single oral; mean ± SD; read-out: AUC0-i
Procedure: Petasin ovalbumin is adsorptively bound to polystyrene microtitration plates in a concentration of […] in 0.1 M carbonate buffer, pH=9.5, (100 μl/well) for 16 hours at 4° C. and thereupon sucked off. After washing it two times with 300 μl/well washing buffer (PBS, 0.1% Tween 20) it is blocked for 2 hours at room temperature with 150 μl/well blocking solution (0.6% gelatine, 0.02% […] in PBS) and subsequently washed three times with washing buffer. […]
QUANTITY: AUC
Please append the unit to your numeric answer.

Exam item: Which AUC value is on record for C=C(C)C1CC2(C)C(=CC1=O)CCC(OC(=O)/C(C)=C\C)C2C (stereo not shown) ?
Marked response: 79.7 ng·h/mL

====

Assay: 1st phase clinical test: pharmacokinetics of petasin in serum after single oral administration of tablets containing butterbur extract (open crossover; enzyme immunoassay)
Assay type: in vivo, human (clinically healthy men)
Conditions: male, human, serum; 2 tablets, single oral; mean ± SD
QUANTITY: MRT
Answer shape: numeric part, then the unit.

Exam item: Look up MRT: C=C(C)C1CC2(C)C(=CC1=O)CCC(OC(=O)/C(C)=C\C)C2C (stereo not shown)
Marked response: 7.32 h

====

Experiment: 1st phase clinical test: pharmacokinetics of petasin in serum after single oral administration of tablets containing butterbur extract (open crossover; enzyme immunoassay)
Format: in vivo, human (clinically healthy men)
Conditions: male, human, serum, oral, 4 tablets, after administering 4 tablets; 4 h p.a.; read-out: Petasin serum concentration Max.
QUANTITY: concentration at 4 h (ng/mL)
Write the value in ng/mL as a bare number.

Exam item: concentration at 4 h for C=C(C)C1CC2(C)C(=CC1=O)CCC(OC(=O)/C(C)=C\C)C2C (stereo not shown) [petasin] ?
Marked response: 20.8

====

Assay: 1st phase clinical test: pharmacokinetics of petasin in serum after single oral administration of tablets containing butterbur extract (open crossover; enzyme immunoassay)
Format: in vivo, human (clinically healthy men)
Details: male, human, serum, oral, 4 tablets, after administering 4 tablets; 3 h p.a.; read-out: Petasin serum concentration Max.
QUANTITY: concentration at 3 h (ng/mL)
Quick reminder: number only, in ng/mL, skip the unit.

Exam item: Could you tell me which concentration at 3 h is on file for C=C(C)C1CC2(C)C(=CC1=O)CCC(OC(=O)/C(C)=C\C)C2C (stereo not shown) [petasin] ?
Marked response: 49

====

Assay: 1st phase clinical test: pharmacokinetics of petasin in serum after single oral administration of tablets containing butterbur extract (open crossover; enzyme immunoassay)
Assay type: in vivo, human (clinically healthy men)
Settings: male, human, serum, oral, 2 tablets, after administering 2 tablets; 1.833 h p.a.; read-out: Petasin serum concentration Mean
Experimental: Petasin ovalbumin is adsorptively bound to polystyrene microtitration plates in a concentration of […] in 0.1 M carbonate buffer, pH=9.5, (100 μl/well) for 16 hours at 4° C. and thereupon sucked off. After washing it two times with 300 μl/well washing buffer (PBS, 0.1% Tween 20) it is blocked for 2 hours at room temperature with 150 μl/well blocking solution (0.6% gelatine, 0.02% […] in PBS) and subsequently washed three times with washing buffer. […]
QUANTITY: concentration at 1.833 h (ng/mL)
Answer format: numeric, ng/mL implied, no suffix.

Exam item: // query concentration at 1.833 h value for entry C=C(C)C1CC2(C)C(=CC1=O)CCC(OC(=O)/C(C)=C\C)C2C (stereo not shown)
Marked response: 18.2
